# TGT: STAT3 (Homo sapiens)
# Sequence (P40763 whole entry): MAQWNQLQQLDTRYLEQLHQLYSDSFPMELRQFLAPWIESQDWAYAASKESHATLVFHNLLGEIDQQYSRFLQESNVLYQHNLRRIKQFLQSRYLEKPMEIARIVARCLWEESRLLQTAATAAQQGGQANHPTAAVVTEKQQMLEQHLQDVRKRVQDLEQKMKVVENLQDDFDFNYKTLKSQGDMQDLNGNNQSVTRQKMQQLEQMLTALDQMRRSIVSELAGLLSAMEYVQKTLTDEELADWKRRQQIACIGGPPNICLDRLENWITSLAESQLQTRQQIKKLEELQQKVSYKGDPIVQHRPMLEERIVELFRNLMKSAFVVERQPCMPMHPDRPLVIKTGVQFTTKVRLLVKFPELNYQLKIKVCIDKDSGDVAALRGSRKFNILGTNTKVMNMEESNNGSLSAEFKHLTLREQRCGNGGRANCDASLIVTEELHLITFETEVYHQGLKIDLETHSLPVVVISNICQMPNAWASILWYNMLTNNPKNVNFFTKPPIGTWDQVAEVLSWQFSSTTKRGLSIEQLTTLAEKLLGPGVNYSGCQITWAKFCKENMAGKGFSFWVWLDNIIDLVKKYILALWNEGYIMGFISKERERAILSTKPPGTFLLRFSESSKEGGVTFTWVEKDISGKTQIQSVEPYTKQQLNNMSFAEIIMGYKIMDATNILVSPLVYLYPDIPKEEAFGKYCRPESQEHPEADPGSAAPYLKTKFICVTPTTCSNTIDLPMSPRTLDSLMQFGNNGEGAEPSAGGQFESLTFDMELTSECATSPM
# ASSAY_INFO: STAT3 HiBiT degradation assay in transfected A549 cells
# Format: cell-based
# Parameters: expressed in transfected cells; host or cells: A549
# EXPERIMENTAL_CONTEXT: A549, 24 h; read-out: STAT3 HiBiT A549 degradation 24 h: Average external-Abs DC50
REPORTED_ENDPOINT: DC50

Reference set (3 entries):
Cn1c(=O)n(C2CCC(=O)NC2=O)c2ccc(CC3CCC(CC(=O)N4CC[C@H]5CC[C@@H](C(=O)N[C@H](CCC(N)=O)C(=O)NCc6ccc(S(C)(=O)=O)cc6)N5C(=O)[C@@H](NC(=O)c5cc6cc(C(=O)P(=O)(O)O)ccc6[nH]5)C4)CC3)cc21 (stereo partly drawn) ... > 1000 nM
Cc1ncsc1-c1ccc(CNC(=O)[C@@H]2C[C@@H](O)CN2C(=O)[C@@H](NC(=O)CCCCc2ccc(CN(C)C[C@H](CCC(N)=O)NC(=O)[C@@H]3Cc4cccc5c4N3C(=O)[C@@H](NC(=O)c3cc4cc(C(=O)P(=O)(O)O)ccc4[nH]3)CC5)cc2)C(C)(C)C)cc1 ... 100 to 1000 nM
Cn1c(=O)n(C2CCC(=O)NC2=O)c2ccc(CCCCCCc3cc4c5c(c3)C[C@@H](C(=O)N[C@@H](CCC(N)=O)C(=O)NC(c3ccccc3)c3ccccc3)N5C(=O)[C@@H](NC(=O)c3cc5cc(C(=O)P(=O)(O)O)ccc5[nH]3)CC4)cc21 (stereo partly drawn) ... 10 to 100 nM

Per the record, C[C@@H](OCc1ccccc1)[C@H](CCC(N)=O)NC(=O)[C@@H]1CC[C@@H]2CCN(C(=O)CCCCCCc3ccc4c(c3)n(C)c(=O)n4C3CCC(=O)NC3=O)C[C@H](NC(=O)c3cc4cc(C(=O)P(=O)(O)O)ccc4[nH]3)C(=O)N21 (stereo partly drawn) has DC50 of 100 to 1000 nM

Per the record, Cn1c(=O)n(C2CCC(=O)NC2=O)c2cccc(CCCCCCC(=O)N3CC[C@H]4CC[C@@H](C(=O)N[C@@H](CCC(N)=O)C(=O)NC(c5ccccc5)c5ccccc5)N4C(=O)[C@@H](NC(=O)c4cc5cc(C(=O)P(=O)(O)O)ccc5[nH]4)C3)c21 (stereo partly drawn) has DC50 of > 1000 nM

Per the record, Cn1c(=O)n(C2CCC(=O)NC2=O)c2ccc(N3CCN(CCCC(=O)N4CC[C@H]5CC[C@@H](C(=O)N[C@@H](CCC(N)=O)C(=O)NC(c6ccccc6)c6ccccc6)N5C(=O)[C@@H](NC(=O)c5cc6cc(C(=O)P(=O)(O)O)ccc6[nH]5)C4)CC3)cc21 (stereo partly drawn) has DC50 of > 1000 nM

---

# TGT: UniProt:P40763
# ASSAY_INFO: Quantitation of STAT3 degradation in A549 cells by Western blot
# Format: cell-based
# Parameters: expressed in transfected cells; host or cells: A549
# EXPERIMENTAL_CONTEXT: read-out: A549 DC50, 24 hours, tested up to 30 μM or 10 μM
Measured DC50 values are reported for all entries that follow.

Reference set (2 entries):
Cc1ncsc1-c1ccc(CNC(=O)[C@@H]2C[C@@H](O)CN2C(=O)[C@@H](NC(=O)CCCCCc2ccc(CO[C@H](C)[C@H](CCC(N)=O)NC(=O)[C@@H]3Cc4cccc5c4N3C(=O)[C@@H](NC(=O)c3cc4cc(C(=O)P(=O)(O)O)ccc4[nH]3)CC5)cc2)C(C)(C)C)cc1 ... < 30 µM
C/C(=C\C(=O)N[C@H]1CCc2cccc3c2N(C1=O)[C@H](C(=O)N[C@@H](CCC(N)=O)[C@@H](C)OCc1ccc(CCCOCCOCCOCCCc2ccc4c(c2)n(C)c(=O)n4C2CCC(=O)NC2=O)cc1)C3)c1ccc(C(F)(F)P(=O)(OCOC(=O)C(C)(C)C)OCOC(=O)C(C)(C)C)cc1 (stereo partly shown) ... > 30 µM

GET /values?item= C/C(=C\C(=O)N[C@H]1CCc2cccc3c2N(C1=O)[C@H](C(=O)N[C@@H](CCC(N)=O)[C@@H](C)OCc1ccc(CCCCOc2cc(-c4scnc4C)ccc2CNC(=O)[C@@H]2C[C@@H](O)CN2C(=O)[C@@H](NC(=O)C2(F)CC2)C(C)(C)C)cc1)C3)c1ccc(C(F)(F)P(=O)(OCOC(=O)C(C)(C)C)OCOC(=O)C(C)(C)C)cc1 &system= UniProt:P40763 returns DC50: > 10 µM

GET /values?item= C/C(=C\C(=O)N[C@H]1CCc2cccc3c2N(C1=O)[C@H](C(=O)NC(CCC(N)=O)[C@@H](C)OCc1ccc(CCCOCCCCCOCCCc2cccc4c2n(C)c(=O)n4C2CCC(=O)NC2=O)cc1)C3)c1ccc(C(F)(F)P(=O)(OCOC(=O)C(C)(C)C)OCOC(=O)C(C)(C)C)cc1 (stereo partly shown) &system= UniProt:P40763 returns DC50: > 30 µM

GET /values?item= C/C(=C\C(=O)N[C@H]1CCc2cccc3c2N(C1=O)[C@H](C(=O)NC(CCC(N)=O)[C@@H](C)OCc1ccc(CCCOCC(=O)N[C@H](C(=O)N2C[C@H](O)CC2C(=O)NCc2ccc(-c4scnc4C)cc2)C(C)(C)C)cc1)C3)c1ccc(C(F)(F)P(=O)(OCOC(=O)C(C)(C)C)OCOC(=O)C(C)(C)C)cc1 (stereo partly shown) &system= UniProt:P40763 returns DC50: < 30 µM

GET /values?item= Cn1c(=O)n(C2CCC(=O)NC2=O)c2cccc(CCCCCCCC(=O)N3CC[C@H]4CC[C@@H](C(=O)N[C@@H](CCC(N)=O)C(=O)NC(c5ccccc5)c5ccccc5)N4C(=O)[C@@H](NC(=O)c4cc5cc(C(=O)P(=O)(O)O)ccc5[nH]4)C3)c21 (stereo partly shown) &system= UniProt:P40763 returns DC50: < 30 µM

GET /values?item= C/C(=C\C(=O)N[C@H]1CCc2cccc3c2N(C1=O)[C@H](C(=O)N[C@@H](CCC(N)=O)[C@@H](C)OCc1ccc(CCOCCOCCOCCOCC(=O)N[C@H](C(=O)N2C[C@H](O)C[C@H]2C(=O)NCc2ccc(-c4scnc4C)cc2)C(C)(C)C)cc1)C3)c1ccc(C(F)(F)P(=O)(OCOC(=O)C(C)(C)C)OCOC(=O)C(C)(C)C)cc1 &system= UniProt:P40763 returns DC50: > 10 µM
